Catalogue of kon readings, one per entry.
# SYSTEM_NAME: Ten-M2 antigen (BiaCore analyte) (UniProt Q9NT68 399-2774)
Answer with a number only, understood to be in M⁻¹ s⁻¹.

Examples from the recorded data:
[[record]]
binder = "Ten-M2-120 (antibody, V domains shown, also called Mab120) VH: QVQLVESGGGVVQPGRSLRLSCAASGFTFSSYGMHWVRQAPGKGLEWVAVLWYDGSKKFYADSVKGRFTISRDNSKNTLYLQMNSLRAEDTALYYCARGPWNYYYYGMDVWGQGTTVTVSS VL: EIVLTQSPGTLSLSPGERATLSCRASQSVISSYLAWYQQKPGQAPRLLIYNASNRATGIPDRFSGSGSGTDFTLTISRLEPEDFAVYYCQQYGSSPITFGQGTRLEIK"
data_value = 26200

[[record]]
binder = "Ten-M2-140 (antibody, IgG2, V domains shown, Fully human mAb from IgG2 kappa XenoMouse (B cell clone); also called Mab140; anti-Ten-M2 monoclonal antibody clone 140) VH: QEQLVESGGGVVQPGRSLRLSCAASGFTFSSHGMHWVRQAPGKGLEWVAIIWYDGSKKFYADSVKGRFTISRDNSKNTLSLQMNSLRAEDTAVYYCARGPWNYYYYGMDVWGQGTTVTVSS VL: EIVLTQSPGTLSLSPGERATFSCRASQSVISNYLAWYQQKPGQAPRLLIYNTSSRATGIPGRFSGGGSGTDFTLTITRLEPEDFAVYYCQQYGSSPITFGQGTRLEIK"
data_value = 40100

[[record]]
binder = "Ten-M2-179 (antibody, IgG2, V domains shown, Fully human mAb from IgG2 kappa XenoMouse (B cell clone); also called Mab179) VH: QVQLVESGGGVVQPGRSLRLSCAASGFTFSSYGMHWVRQAPGKGLEWVAFIWYDGSNKYYADSVKGRFTISRDNSKNTLYLQMNSLRAEDTAVYYCARDGSSGWYFFDYWGQGTLVTVSS VL: DIVMTQTPLSLSVTPGQPASISCKSSQSLLHSDRQTYLFWYLQKPGQPPQLLIYEVSNRFSGVPDRFSGSGSGTDFTLKISRVEAEDVGVYYCMQSIQLPPTFGPGTKVDIK"
data_value = 16300


Kindly consider the entry below.
Recorded kon (binder Ten-M2-213 (antibody, IgG2, V domains shown, Fully human mAb from IgG2 kappa XenoMouse (B cell clone); also called Mab 213) VH: QVQLVQSGAEVKKPGASVKVSCKASGYTFTNYDINWVRQATGQGLEWMGWMNPNSGNTGYAQKFQGRVTMTRNTSIRTAYMELSSLRSEDTAVYYCARGPGGSFYYYYGMDVWGQGTTVTVSS VL: DIQMTQSPSSLSASVGDRVTITCRASQSISSYLNWYQQKPGKAPNLLIYTASSLQSGVPSRFSGSGSGTVFTLTISSLQPEDFATYYCQQSSSTPFTFGPGTKVDFK ): 29000
